system: MCF7; experiment: NCI tumour cell line growth inhibition, 48 h
Calls of active or inactive are those of the source. Cut-off read from the data, not from the text of the source: active = GI50 up to about 1.1 µM and inactive = higher.
Possible outcomes: active, inactive

{"columns": ["molecule", "assayed system", "class"],
 "data": [
  ["CCOP(=O)(OCC)/C(C#N)=C/c1c[nH]c2ccccc12", "MCF7", "inactive"],
  ["COc1ccc2nc3cc([N+](=O)[O-])ccc3c(NNc3ccc([N+](=O)[O-])cc3)c2c1", "MCF7", "inactive"],
  ["CC(C)[C@]12O[C@H]1[C@@H]1O[C@@]13[C@@]1(C)CCC4=C(COC4=O)[C@@H]1C[C@@H]1O[C@@]13C2=O [TRIPTONIDE]", "MCF7", "active"],
  ["COCN1C(N)=C(C(=O)OC(C)(C)C)C2=CC(=O)C=CC21C (configuration not stated)", "MCF7", "inactive"],
  ["CCSC1=N/C(=C\\c2ccco2)C(Nc2ccc(C)cc2)=N1", "MCF7", "inactive"],
  ["CCNc1ccc2c(c1)Cc1ccccc1-2", "MCF7", "inactive"],
  ["O=C1NC(c2cccc3ccccc23)Nc2ccc(Cl)cc21 (configuration not stated)", "MCF7", "active"],
  ["Cc1c(N=NN(C)C)cc[n+]([O-])c1C", "MCF7", "inactive"],
  ["CCN(CC)C1Oc2cc3c(cc2C(c2cccc(OC)c2OC)C1C)OCO3 (configuration not stated)", "MCF7", "inactive"],
  ["Cc1ccc(O)c(C2=CC(c3cccc(Br)c3)SC(=N)N2)c1 (configuration not stated)", "MCF7", "inactive"],
  ["Nc1nc(N)c2ncn(-c3ccc(Cl)c(Cl)c3)c2n1", "MCF7", "inactive"],
  ["CCc1ccc2c(c1)/C(=C1/Nc3ccccc3C1=O)C(=O)N2", "MCF7", "inactive"]
]}

---

tested on: EKVX; test: NCI tumour cell line growth inhibition, 48 h
Active and inactive are the calls of the source. Cut-off read from the data, not from the text of the source: active = GI50 up to about 1.1 µM and inactive = higher.

{"columns": ["molecule", "GI50"],
 "data": [
  ["COc1ccc(C2=C(N)c3c(OC)cccc3C2=O)cc1", "> 100 µM (inactive)"],
  ["CCSC1(SCC)CCN(/C=N/C(C)(C)C)C1", "> 100 µM (inactive)"],
  ["C/C([O-])=C(/c1nc(-c2ccc([N+](=O)[O-])o2)no1)[n+]1cc(C)ccc1C", "58.6 µM (inactive)"],
  ["C=C1[C@H](OC(=O)C(C)C)[C@@H](OC(C)=O)[C@@H](OC(C)=O)C(C)(C)[C@@H]2O[C@H]2[C@@H](C)C(=O)[C@@]2(OC(C)=O)C[C@@](C)(OC(C)=O)[C@H](OC(C)=O)[C@@H]2[C@H]1OC(C)=O", "> 100 µM (inactive)"],
  ["CCCC12Cc3c(OC)ccc(OC)c3CC(Cc3c(OC)ccc(OC)c31)C2=O (configuration not stated)", "> 100 µM (inactive)"],
  ["CCOC(=O)C(C)(C)Oc1ccc(Cl)cc1 [CLOFIBRATE]", "201 µM (inactive)"],
  ["CC1(C)O[C@@H]2C[C@H]3[C@@H]4C[C@H](F)C5=CC(=O)C=C[C@]5(C)[C@@]4(F)[C@@H](O)C[C@]3(C)[C@]2(C(=O)CO)O1 [FLUOCINOLONE ACETONIDE]", "> 100 µM (inactive)"]
]}

---

test system: HCC 2998; test: NCI tumour cell line growth inhibition, 48 h
Active and inactive are the calls of the source. No stated cut-off is given here; in the data, active = GI50 up to about 1.1 µM and inactive = higher.

{"columns": ["compound", "assayed system", "GI50"],
 "data": [
  ["COc1cc(C)cc2c1C(=O)C(NC(C)=O)=CC2=O", "HCC 2998", "> 100 µM (inactive)"],
  ["C=CCCCCOC1C=CC(OC(C)=O)C(COC(C)=O)O1 (stereo not drawn)", "HCC 2998", "> 100 µM (inactive)"],
  ["CCCNC(/C=C/[Si](C)(C)C)CO.CCCNCC(O)/C=C/[Si](C)(C)C (stereo not drawn)", "HCC 2998", "> 100 µM (inactive)"]
]}

---

tested on: NCI-H226; assay: NCI tumour cell line growth inhibition, 48 h
Activity calls are given as the source filed them. No stated cut-off is given here; in the data, active = GI50 up to about 1.1 µM and inactive = higher.

{"columns": ["item smiles", "GI50"],
 "data": [
  ["CCOC(=O)c1c(N2CCOCC2)[nH]c(=O)c(C(c2ccc(Cl)c([N+](=O)[O-])c2)c2c(O)c(C(=O)OCC)c(N3CCOCC3)[nH]c2=O)c1O", "> 100 µM (inactive)"],
  ["CC1(C)c2ccccc2C(=O)C12CCC(=O)CC2", "> 100 µM (inactive)"],
  ["COc1ccc(C[C@H]2COC(=O)[C@@H]2Cc2cc(OC)c(OC)c(OC)c2)cc1OC", "> 34.4 µM (inactive)"],
  ["Cc1nnc2sc(NN)nn12", "> 100 µM (inactive)"],
  ["Cc1ncc([N+](=O)[O-])n1CCNCCCn1ccnc1[N+](=O)[O-]", "> 100 µM (inactive)"]
]}

---

tested on: HOP-18; test: NCI tumour cell line growth inhibition, 48 h
The source made the active and inactive calls. Cut-off read from the data, not from the text of the source: active = GI50 up to about 1.1 µM and inactive = higher.

{"columns": ["compound", "GI50"],
 "data": [
  ["O=NN(CCCl)C(=O)N[C@H]1CC[C@@H](C(=O)O)CC1", "> 69.5 µM (inactive)"],
  ["CN(C)c1n/c(=N/c2cccc(Cl)c2)ss1", "> 100 µM (inactive)"],
  ["CC(O[Si](C)(C)C)C1C=CC(C)n2c(=O)n(-c3ccccc3)c(=O)n21 (stereo unspecified)", "> 100 µM (inactive)"],
  ["NC(=O)C1(c2ccccc2)Nc2ccccc2S1 (stereo unspecified)", "> 100 µM (inactive)"],
  ["N#Cc1cccc2c1Nc1ccccc1S2", "37.3 µM (inactive)"],
  ["C[C@]12CC/C(=N\\OC(=O)Nc3ccccc3)C=C1CC[C@@H]1C2CC[C@@]2(C)C1CC[C@@H]2OC(=O)Nc1ccccc1 (stereo partly specified)", "> 100 µM (inactive)"],
  ["O=C(CCC1CCCCN1)Nc1ccc2c(c1)C(=O)c1ccc(NC(=O)CCN3CCCCC3)cc1C2=O (stereo unspecified)", "2.79 µM (inactive)"],
  ["NC(=O)C12CC3CC(CC(Br)(C3)C1)C2", "> 100 µM (inactive)"],
  ["Cc1cc(N(CCC#N)CCC#N)ccc1/C=N\\c1ccc(C(=O)NN2C(=O)/C(=C/c3ccc(N(CCC#N)CCC#N)cc3)N=C2c2cc([N+](=O)[O-])ccc2Cl)cc1", "5.4 µM (inactive)"],
  ["CC1(C)CC(Nc2ccc(Nc3ccccc3)cc2)CC(C)(C)N1", "> 100 µM (inactive)"],
  ["COc1cc(Nc2nc3cc(C)ccc3nc2-c2ccccc2)cc(OC)c1OC", "24.3 µM (inactive)"]
]}

---

tested on: MOLT-4; test: NCI tumour cell line growth inhibition, 48 h
Calls of active or inactive are those of the source. Rule as the data show it: active = GI50 up to about 1.1 µM and inactive = higher.

{"columns": ["compound", "GI50"],
 "data": [
  ["O=C(Nc1nncs1)NS(=O)(=O)n1c(=S)sc2ccccc21", "42.4 µM (inactive)"],
  ["CCOC(=O)c1nc2ccccc2nc1Oc1cc(OC)c(OC)c(OC)c1", "> 100 µM (inactive)"],
  ["O=C1c2nc3n(c2C(=O)c2c1nc1n2CCC1)CCC3", "5.46 µM (inactive)"],
  ["NS(=O)(=O)c1ccc(NC(=O)N/N=C/c2ccccc2O)cc1", "37.7 µM (inactive)"],
  ["COc1cc(C2c3cc4c(cc3[C@@H](Nc3cccc(C(C)=O)c3)C3COC(=O)[C@H]23)OCO4)cc(OC)c1O (some centres not stated)", "< 0.01 µM (active)"],
  ["CCNc1ccc2c(c1)Cc1ccccc1-2", "12.9 µM (inactive)"],
  ["COc1ccc2c(=O)c3ccoc3n(CC=C(C)C)c2c1 [ACROPHYLLINE]", "25.2 µM (inactive)"],
  ["CC(=O)OC(C(=O)O)C(OC(C)=O)C(OC(C)=O)C(OC(C)=O)C(=O)O (configuration not stated)", "> 100 µM (inactive)"],
  ["O=C(NN=C1CCCCC1)Nc1ccccc1Cl", "47.8 µM (inactive)"],
  ["c1ccc2c(c1)c1ccccc1c1n[se]nc21", "> 100 µM (inactive)"],
  ["CN1CCN([C@H]2C[C@H]3[C@@H]4CC=C5C[C@@H](N6CCCC6)CC[C@]5(C)[C@H]4CC[C@]3(C)[C@H]2O)CC1", "23.7 µM (inactive)"],
  ["COc1nc(=O)cc(N)n1C1OC(CO)C(O)C1O (configuration not stated)", "> 100 µM (inactive)"]
]}

---

tested on: Malme-3M; assay: NCI tumour cell line growth inhibition, 48 h
Activity calls are given as the source filed them. Rule as the data show it: active = GI50 up to about 1.1 µM and inactive = higher.
Below, each entry is listed alongside its reported GI50.
readout label: GI50

{"columns": ["compound", "result"],
 "data": [
  ["CCn1c2c(n(CC)c1=S)-c1c(n(CC)c(=S)n1CC)SSSS2", "2.83 µM (inactive)"],
  ["C=C(CN(C)C)C(=O)c1ccc(C(=O)C(=C)CN(C)C)cc1", "> 100 µM (inactive)"],
  ["O=C(O)c1cc2ccccc2c(O)c1O", "1.8 µM (inactive)"],
  ["COC(=O)N1[C@H]2Cc3c(OC)c(C)c(OC)c(OC)c3[C@@H]1/C(=C\\c1cc(OC)c(OC)c(C)c1OC)N(Cc1ccccc1)C2=O", "28.6 µM (inactive)"],
  ["O=C(CSCC(=O)N/N=C/c1ccc2c(c1)OCO2)N/N=C/c1ccc2c(c1)OCO2", "49.2 µM (inactive)"],
  ["N/C(=N\\N=C=C1C(=O)Nc2ccc(F)cc21)NO", "> 100 µM (inactive)"],
  ["O=C1C(c2cnc3ccccc3n2)=C(O)c2ccccc21", "> 100 µM (inactive)"],
  ["COC(=O)C(NC(=O)CSc1nnc(COc2ccc(Cl)cc2)n1-c1ccccc1)C(C)C (stereo not drawn)", "16.5 µM (inactive)"]
]}
